Molecular target: hα9α10 nAChRs (Homo sapiens, UniProt Q9GZZ6+Q9UGM1)
Construct: host or cells: Xenopus laevis oocytes, cRNA-injected (α9:α10 cRNA ratio 1:1)
Sequence (Q9UGM1 26-479 limits assumed): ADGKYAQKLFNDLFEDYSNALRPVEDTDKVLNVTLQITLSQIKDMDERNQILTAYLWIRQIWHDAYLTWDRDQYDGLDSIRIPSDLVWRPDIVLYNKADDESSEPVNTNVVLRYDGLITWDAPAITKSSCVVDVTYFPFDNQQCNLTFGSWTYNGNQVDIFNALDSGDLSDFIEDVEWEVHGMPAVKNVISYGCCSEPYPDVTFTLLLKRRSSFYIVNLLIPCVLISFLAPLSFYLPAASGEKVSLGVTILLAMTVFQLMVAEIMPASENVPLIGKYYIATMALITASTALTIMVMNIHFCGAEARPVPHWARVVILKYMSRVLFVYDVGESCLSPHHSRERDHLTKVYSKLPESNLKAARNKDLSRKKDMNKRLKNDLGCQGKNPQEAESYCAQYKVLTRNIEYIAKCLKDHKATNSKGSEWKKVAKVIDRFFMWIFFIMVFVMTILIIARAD
Sequence (Q9GZZ6 25-450): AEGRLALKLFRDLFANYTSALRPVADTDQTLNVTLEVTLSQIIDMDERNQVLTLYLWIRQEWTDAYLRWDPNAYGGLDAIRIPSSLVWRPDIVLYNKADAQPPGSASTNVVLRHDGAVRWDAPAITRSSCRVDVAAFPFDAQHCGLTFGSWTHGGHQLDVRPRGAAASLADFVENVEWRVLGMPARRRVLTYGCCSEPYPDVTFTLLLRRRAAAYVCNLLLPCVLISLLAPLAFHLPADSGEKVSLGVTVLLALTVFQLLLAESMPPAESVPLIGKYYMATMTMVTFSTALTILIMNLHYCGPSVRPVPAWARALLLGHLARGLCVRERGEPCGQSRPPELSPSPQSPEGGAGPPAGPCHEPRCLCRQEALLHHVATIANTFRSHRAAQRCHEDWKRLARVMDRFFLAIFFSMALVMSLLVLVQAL
Experiment: Two-electrode voltage clamp, inhibition of ACh-evoked currents at hα9α10 nAChRs expressed in Xenopus laevis oocytes
Assay type: cell-based
Lab note: compare IC50 ratio to Cpd 1 with 2, writing 1 (yes) if less and 0 (no) if equal or more.

[
  {
    "chem smiles": "C[N+](C)(CCOc1ccc(/C=C/c2ccccc2)cc1)c1ccccc1.[I-]",
    "system name": "hα9α10 nAChRs (Homo sapiens, UniProt Q9GZZ6+Q9UGM1)",
    "assigned category": "1 (yes)"
  },
  {
    "chem smiles": "CC[N+](CC)(CC)CCOc1ccc(-c2ccccc2)cc1",
    "system name": "hα9α10 nAChRs (Homo sapiens, UniProt Q9GZZ6+Q9UGM1)",
    "assigned category": "1 (yes)"
  },
  {
    "chem smiles": "C[N+](C)(CCOc1ccc(OCc2ccccc2)cc1)C1CCCCC1.[I-]",
    "system name": "hα9α10 nAChRs (Homo sapiens, UniProt Q9GZZ6+Q9UGM1)",
    "assigned category": "1 (yes)"
  },
  {
    "chem smiles": "CC[N+](CC)(CC)CCOc1ccc(COc2ccccc2)cc1",
    "system name": "hα9α10 nAChRs (Homo sapiens, UniProt Q9GZZ6+Q9UGM1)",
    "assigned category": "0 (no)"
  },
  {
    "chem smiles": "C[N+](C)(CCCOc1ccc(/C=C/c2ccccc2)cc1)C1CCCCC1.[I-]",
    "system name": "hα9α10 nAChRs (Homo sapiens, UniProt Q9GZZ6+Q9UGM1)",
    "assigned category": "1 (yes)"
  },
  {
    "chem smiles": "C[N+](C)(CCCCOc1ccc(/C=C/c2ccccc2)cc1)C1CCCCC1.[I-]",
    "system name": "hα9α10 nAChRs (Homo sapiens, UniProt Q9GZZ6+Q9UGM1)",
    "assigned category": "0 (no)"
  },
  {
    "chem smiles": "CC[N+](CC)(CC)CCOc1ccc(C#Cc2ccccc2)cc1",
    "system name": "hα9α10 nAChRs (Homo sapiens, UniProt Q9GZZ6+Q9UGM1)",
    "assigned category": "1 (yes)"
  },
  {
    "chem smiles": "C[N+](C)(CCOc1ccc(/C=C/c2ccccc2)cc1)C1CCCCCC1.[I-]",
    "system name": "hα9α10 nAChRs (Homo sapiens, UniProt Q9GZZ6+Q9UGM1)",
    "assigned category": "0 (no)"
  },
  {
    "chem smiles": "C[N+](C)(CCOc1ccc(/C=C/c2ccccc2)cc1)C1CCOCC1.[I-]",
    "system name": "hα9α10 nAChRs (Homo sapiens, UniProt Q9GZZ6+Q9UGM1)",
    "assigned category": "1 (yes)"
  }
]

====

Biological target: hα9α10 nAChRs (Homo sapiens, UniProt Q9GZZ6+Q9UGM1)
Construct: host or cells: Xenopus laevis oocytes, cRNA-injected (α9:α10 cRNA ratio 1:1)
Assay: Two-electrode voltage clamp, compound-evoked currents (compound applied alone) at hα9α10 nAChRs in Xenopus laevis oocytes
Format: cell-based
Details: compound applied alone
Description: The protocols were approved by the Animal Ethics Committees of the Victor Chang Cardiac Research Institute, Sydney, and the University of Wollongong (project number AE 20/17). Human α9 and α10 nAChR clones were obtained from OriGene (Rockville, MD, USA) and subcloned into the pT7TS vector. The human α7 nAChR clone, in the plasmid pMXT, was kindly provided by J. Lindstrom (University of Pennsylvania, USA). […]
test readout: n H (Hill coefficient of activation)

[
  {
    "molecule": "C[N+](CCOc1ccc(/C=C/c2ccccc2)cc1)(C1CCCC1)C1CCCC1.[I-] [Compound 12]",
    "system name": "hα9α10 nAChRs (Homo sapiens, UniProt Q9GZZ6+Q9UGM1)",
    "value measured": 1.2
  },
  {
    "molecule": "C[N+](C)(CCCCOc1ccc(/C=C/c2ccccc2)cc1)C1CCCCC1.[I-] [Compound 15]",
    "system name": "hα9α10 nAChRs (Homo sapiens, UniProt Q9GZZ6+Q9UGM1)",
    "value measured": 1.4
  },
  {
    "molecule": "C[N+](C)(CCOc1ccc(/C=C/c2ccccc2)cc1)C1CCCCCC1.[I-] [Compound 8]",
    "system name": "hα9α10 nAChRs (Homo sapiens, UniProt Q9GZZ6+Q9UGM1)",
    "value measured": 1.6
  },
  {
    "molecule": "CC[N+](CC)(CC)CCOc1ccc(C#Cc2ccccc2)cc1 [Compound 18]",
    "system name": "hα9α10 nAChRs (Homo sapiens, UniProt Q9GZZ6+Q9UGM1)",
    "value measured": 2.2
  }
]

====

Target: hα9 nAChRs (Homo sapiens)
Construct: host or cells: Xenopus laevis oocytes, cRNA-injected
Sequence (Q9UGM1 26-479 limits assumed): as the sequence (Q9UGM1 26-479 limits assumed) above
Assay: Two-electrode voltage clamp, compound-evoked currents at hα9 nAChRs in Xenopus laevis oocytes
Type: cell-based
Settings: compound applied alone, read-out: EC50
pEC50: −log10 of the molar value.

[
  {
    "chem smiles": "C[N+](C)(CCOc1ccc(OCc2ccccc2)cc1)C1CCCCC1.[I-]",
    "system name": "hα9 nAChRs (Homo sapiens)",
    "pEC50": 6.04
  },
  {
    "chem smiles": "C[N+](C)(CCOc1ccc(CCc2ccccc2)cc1)C1CCCCC1.[I-]",
    "system name": "hα9 nAChRs (Homo sapiens)",
    "pEC50": 6.01
  }
]

====

Target: hα9α10 nAChRs (Homo sapiens, UniProt Q9GZZ6+Q9UGM1)
Construct: host or cells: Xenopus laevis oocytes, cRNA-injected (α9:α10 cRNA ratio 1:1)
Test: Two-electrode voltage clamp, compound-evoked currents (compound applied alone) at hα9α10 nAChRs in Xenopus laevis oocytes
Format: cell-based
With a cut-off of 1, any EC50 ratio to Cpd 1 strictly below it is called criterion met; any EC50 ratio to Cpd 1 meeting it or above is called criterion not met.

[
  {
    "molecule": "C[N+](C)(CCOc1ccc(/C=C/c2ccccc2)cc1)C1CCOCC1.[I-] [Compound 6]",
    "system name": "hα9α10 nAChRs (Homo sapiens, UniProt Q9GZZ6+Q9UGM1)",
    "assigned category": "criterion met"
  },
  {
    "molecule": "C[N+](C)(CCOc1ccc(/C=C/c2ccccc2)cc1)Cc1ccccc1.[Br-] [Compound 10]",
    "system name": "hα9α10 nAChRs (Homo sapiens, UniProt Q9GZZ6+Q9UGM1)",
    "assigned category": "criterion not met"
  },
  {
    "molecule": "C[N+](C)(CCOc1ccc(/C=C/c2ccccc2)cc1)C1CCCC1.[I-] [Compound 7]",
    "system name": "hα9α10 nAChRs (Homo sapiens, UniProt Q9GZZ6+Q9UGM1)",
    "assigned category": "criterion met"
  },
  {
    "molecule": "C[N+](C)(CCOc1ccc(/C=C/c2ccccc2)cc1)c1ccccc1.[I-] [Compound 9]",
    "system name": "hα9α10 nAChRs (Homo sapiens, UniProt Q9GZZ6+Q9UGM1)",
    "assigned category": "criterion not met"
  },
  {
    "molecule": "C[N+](C)(CCOc1ccc(/C=C/c2ccccc2)cc1)C1CCCCCC1.[I-] [Compound 8]",
    "system name": "hα9α10 nAChRs (Homo sapiens, UniProt Q9GZZ6+Q9UGM1)",
    "assigned category": "criterion met"
  },
  {
    "molecule": "CC[N+](CC)(CC)CCOc1ccc(OCc2ccccc2)cc1 [Compound 19]",
    "system name": "hα9α10 nAChRs (Homo sapiens, UniProt Q9GZZ6+Q9UGM1)",
    "assigned category": "criterion not met"
  },
  {
    "molecule": "CC[N+](CC)(CC)CCOc1ccc(C#Cc2ccccc2)cc1 [Compound 18]",
    "system name": "hα9α10 nAChRs (Homo sapiens, UniProt Q9GZZ6+Q9UGM1)",
    "assigned category": "criterion not met"
  },
  {
    "molecule": "C[N+](C)(CCCOc1ccc(/C=C/c2ccccc2)cc1)C1CCCCC1.[I-] [Compound 14]",
    "system name": "hα9α10 nAChRs (Homo sapiens, UniProt Q9GZZ6+Q9UGM1)",
    "assigned category": "criterion not met"
  }
]

====

Molecular target: hα9α10 nAChRs (Homo sapiens, UniProt Q9GZZ6+Q9UGM1)
Construct: host or cells: Xenopus laevis oocytes, cRNA-injected (α9:α10 cRNA ratio 1:1)
Experiment: Two-electrode voltage clamp, inhibition of ACh-evoked currents at hα9α10 nAChRs expressed in Xenopus laevis oocytes
Assay type: cell-based
Conditions: 6 μM ACh

[
  {
    "chem smiles": "CC[N+](CC)(CC)CCOc1ccc(OCc2ccccc2)cc1",
    "n H (Hill coefficient of inhibition)": 1.6
  },
  {
    "chem smiles": "C[N+](C)(CCOc1ccc(OCc2ccccc2)cc1)C1CCCCC1.[I-]",
    "n H (Hill coefficient of inhibition)": 1.7
  },
  {
    "chem smiles": "CC[N+](CC)(CC)CCOc1ccc(-c2ccccc2)cc1",
    "n H (Hill coefficient of inhibition)": 1.4
  },
  {
    "chem smiles": "C[N+](C)(CCCCOc1ccc(/C=C/c2ccccc2)cc1)C1CCCCC1.[I-]",
    "n H (Hill coefficient of inhibition)": 2.0
  },
  {
    "chem smiles": "CC[N+](CC)(CC)CCOc1ccc(C#Cc2ccccc2)cc1",
    "n H (Hill coefficient of inhibition)": 1.8
  },
  {
    "chem smiles": "C[N+](C)(CCOc1ccc(/C=C/c2ccccc2)cc1)Cc1ccccc1.[Br-]",
    "n H (Hill coefficient of inhibition)": 2.1
  },
  {
    "chem smiles": "C[N+](C)(CCOc1ccc(/C=C/c2ccccc2)cc1)C1CCCCCC1.[I-]",
    "n H (Hill coefficient of inhibition)": 2.6
  },
  {
    "chem smiles": "C[N+](C)(CCOc1ccc(COc2ccccc2)cc1)C1CCCCC1.[I-]",
    "n H (Hill coefficient of inhibition)": 1.7
  },
  {
    "chem smiles": "C[N+](CCOc1ccc(/C=C/c2ccccc2)cc1)(C1CCCC1)C1CCCC1.[I-]",
    "n H (Hill coefficient of inhibition)": 3.0
  },
  {
    "chem smiles": "C[N+](C)(CCCOc1ccc(/C=C/c2ccccc2)cc1)C1CCCCC1.[I-]",
    "n H (Hill coefficient of inhibition)": 2.1
  },
  {
    "chem smiles": "C[N+](C)(CCOc1ccc(/C=C/c2ccccc2)cc1)c1ccccc1.[I-]",
    "n H (Hill coefficient of inhibition)": 2.1
  },
  {
    "chem smiles": "C[N+](C)(CCOc1ccc(/C=C/c2ccccc2)cc1)C1CCOCC1.[I-]",
    "n H (Hill coefficient of inhibition)": 2.1
  },
  {
    "chem smiles": "C[N+](C)(CCOc1ccc(CCc2ccccc2)cc1)C1CCCCC1.[I-]",
    "n H (Hill coefficient of inhibition)": 3.8
  },
  {
    "chem smiles": "C[N+](C)(CCOc1ccc(/C=C/c2ccccc2)cc1)C1CCCC1.[I-]",
    "n H (Hill coefficient of inhibition)": 1.7
  }
]
